- System name: Female germline-specific tumor suppressor gld-1 (Caenorhabditis elegans) (UniProt Q17339)
- Sequence (Q17339 whole entry, looked up): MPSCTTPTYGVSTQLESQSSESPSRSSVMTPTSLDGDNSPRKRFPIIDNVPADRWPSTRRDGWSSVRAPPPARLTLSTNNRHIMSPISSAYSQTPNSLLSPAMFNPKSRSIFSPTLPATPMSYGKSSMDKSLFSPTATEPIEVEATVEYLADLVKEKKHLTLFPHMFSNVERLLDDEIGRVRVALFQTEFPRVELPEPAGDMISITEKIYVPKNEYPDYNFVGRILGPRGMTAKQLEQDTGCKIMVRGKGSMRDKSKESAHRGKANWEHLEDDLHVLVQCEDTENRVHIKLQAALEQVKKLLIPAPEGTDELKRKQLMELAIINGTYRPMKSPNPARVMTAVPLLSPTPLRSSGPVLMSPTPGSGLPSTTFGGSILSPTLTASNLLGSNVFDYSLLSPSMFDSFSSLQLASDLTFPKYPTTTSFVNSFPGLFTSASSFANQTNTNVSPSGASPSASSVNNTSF
- Protocol text: small molecules blocking C. elegans GLD-1 RNA recognition – biochemical, fluorescence polarization, primary screen (AID 2280);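 further: 0% = DMSO wells with GLD-1 and probe and 100% = wells lacking GLD-1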
- Condition label: purified GLD-1 + fluorescein TGE RNA, at 5.96 µM, hits give high values
The campaign covered roughly 320,000 compounds. About 1,400 (0.44%) were called active. This is one part of a sample in which actives are shown more often than they occur.
Assay readout: inhibition (%)
API: value field is a number in %; no unit string.

Compound	inhibition (%)
Cc1ccc(C(=O)NC(=S)Nc2ccccc2C)cc1	-1.38
Cc1ccc(NC(=S)NC(=O)c2ccc(-c3ccccc3)cc2)cc1	-3.26
COc1ccc(NC(=O)C(C)SCc2ccccc2)cc1 (stereo unspecified)	4.3

-- ask Item under review: CCC(CO)Oc1cc(NCc2ccccc2)c2ncn(C3CCCC3)c2c1 (stereo unspecified) . Reported inhibition?
-- reply 5.5

-- ask Item under review: `CC(C)[C@H](NC(=O)N1CCn2c1nc1ccccc12)C(=O)NC1CC1` . Reported inhibition?
-- reply -3.08

-- ask Item under review: `COC(=O)C1=C(NC(=O)C(C)(C)C)CCS1` . Reported inhibition?
-- reply 5.48

* * *

- System name: Female germline-specific tumor suppressor gld-1 (Caenorhabditis elegans) (UniProt Q17339)
- Protocol text: small molecules blocking C. elegans GLD-1 RNA recognition – biochemical, fluorescence polarization, primary screen (AID 2280);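 further: 0% = DMSO wells with GLD-1 and probe and 100% = wells lacking GLD-1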
- Condition label: purified GLD-1 + fluorescein TGE RNA, at 5.96 µM, hits give high values
The whole screen tested about 320,000 compounds, of which about 1,400 (0.44%) were called active. This is one part of a sample in which actives are shown more often than they occur.
Recorded inhibition, one value per entry.
API: value field is a number in %; no unit string.

Reference set (5 entries):
Record smiles	Value
Cc1ccc(CNC(=O)c2ccc3c(c2)S(=O)(=O)c2ccccc2C3=O)cc1	-2.48
COc1ccc(Nc2cc(Cl)ccc2C(=O)O)cn1	66.1
Cc1ccc(NC(=O)c2ccc(Cl)nc2)cc1S(=O)(=O)N1CCOCC1	-0.28
O=C(c1ccc(F)c(S(=O)(=O)N2CCOCC2)c1)N(CCc1ccccc1)Cc1ccccc1	18.5
COc1ccc(NS(=O)(=O)c2ccc(F)cc2F)cn1	-1.42

-- ask Missing value: inhibition, Female germline-specific tumor suppressor gld-1 (Caenorhabditis elegans) (UniProt Q17339), entry `O=C(NCCSCc1ccccc1)c1ccc(Cl)c(S(=O)(=O)N2CCOCC2)c1` . Fill in?
-- reply 7.47

* * *

- System name: Female germline-specific tumor suppressor gld-1 (Caenorhabditis elegans) (UniProt Q17339)
- Protocol text: small molecules blocking C. elegans GLD-1 RNA recognition – biochemical, fluorescence polarization, primary screen (AID 2280);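 further: 0% = DMSO wells with GLD-1 and probe and 100% = wells lacking GLD-1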
- Condition label: purified GLD-1 + fluorescein TGE RNA, at 5.96 µM, hits give high values
About 1,400 (0.44%) of roughly 320,000 compounds were called active. The entries come from a sample that favours actives as a whole.
Assay readout: inhibition (%)
API: value field is a number in %; no unit string.

Molecule	System name	Result unit	Value
Cc1ccc(O)c(NC(=O)c2cc(-c3ccco3)on2)c1	Female germline-specific tumor suppressor gld-1 (Caenorhabditis elegans) (UniProt Q17339)	%	1.89
COC(=O)c1cn(C)c2ccc(S(=O)(=O)N3CC(C)CC(C)C3)cc2c1=O (stereo not drawn)	Female germline-specific tumor suppressor gld-1 (Caenorhabditis elegans) (UniProt Q17339)	%	3.86
COC(=O)CCCC1=CC2=CC(=O)C(C)(OC(=O)c3cccs3)C(=O)C2=CN1c1cccc(C#N)c1 (stereo not drawn)	Female germline-specific tumor suppressor gld-1 (Caenorhabditis elegans) (UniProt Q17339)	%	38.1
COC(=O)CCCC1=CC2=C(c3ccccc3)C(=O)C(C)(OC(=O)C3CCCC3)C(=O)C2=CN1c1ccc(OC)cc1 (stereo not drawn)	Female germline-specific tumor suppressor gld-1 (Caenorhabditis elegans) (UniProt Q17339)	%	7.24
CC[C@]1(O)C[C@@H]2CN(CCc3c([nH]c4ccccc34)[C@@](C(=O)OC)(c3cc4c(cc3OC)N(C)[C@H]3[C@@](O)(C(=O)OC)[C@H](OC(C)=O)[C@]5(CC)C=CCN6CC[C@]43[C@@H]65)C2)C1	Female germline-specific tumor suppressor gld-1 (Caenorhabditis elegans) (UniProt Q17339)	%	35.9

-- ask Item under review: COc1ccc(CCN2C(=O)CC(N3CCC(C(N)=O)CC3)C2=O)cc1OC (stereo not drawn) . Reported inhibition?
-- reply 1.78

-- ask Item under review: `COc1ccc(OC)c(NC(=O)N[C@H](Cc2ccccc2)C(=O)NN)c1` . Reported inhibition?
-- reply 6.48

-- ask Item under review: CCOC(=O)C(Cc1ccccc1)NC(=O)CCC(=O)c1ccc(OC)cc1 (stereo not drawn) . Reported inhibition?
-- reply 2.6

* * *

- System name: Female germline-specific tumor suppressor gld-1 (Caenorhabditis elegans)
- Protocol text: small molecules blocking C. elegans GLD-1 RNA recognition – biochemical, fluorescence polarization, primary screen (AID 2280);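 further: 0% = DMSO wells with GLD-1 and probe and 100% = wells lacking GLD-1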
- Condition label: purified GLD-1 + fluorescein TGE RNA, at 5.96 µM, hits give high values
About 1,400 (0.44%) of roughly 320,000 compounds were called active. The list comes from a sample in which actives are over-represented; it also holds close analogues and randomly drawn compounds.
Recorded inhibition, one value per entry.
API: value field is a number in %; no unit string.

-- ask Item under review: `Cc1ccc(/C=C(\C#N)C(=O)Nc2cccc3ncccc23)o1` . Reported inhibition?
-- reply 59.6

-- ask Item under review: `O=C1CCC(=O)N(c2ccccc2)N1` . Reported inhibition?
-- reply 3.62

-- ask Item under review: `COc1cccc(NC(=O)NCCN2CCCCC2)c1` . Reported inhibition?
-- reply 11.7

-- ask Item under review: `Oc1ccc2ccccc2c1N=Nc1nccs1` . Reported inhibition?
-- reply 33.5

-- ask Item under review: `Cc1ccc(S(=O)(=O)N2CCC3(CC2)OCCO3)c(C)c1` . Reported inhibition?
-- reply -2.29

-- ask Item under review: `CCOC(=O)N1CCN(c2cc(C)c([N+](=O)[O-])cc2F)CC1` . Reported inhibition?
-- reply -3.69

-- ask Item under review: `O=C(Nc1ccc(Cl)cc1)N1CCc2[nH]c3ccccc3c2C1` . Reported inhibition?
-- reply 7.58

-- ask Item under review: `Cc1cccc(-n2ncc3c(=O)[nH]c(SCC(=O)Nc4cc(C)on4)nc32)c1` . Reported inhibition?
-- reply 2.41

-- ask Item under review: `O=C(COC(=O)c1ccncc1)Nc1ccc2c(c1)OCO2` . Reported inhibition?
-- reply -0.85

-- ask Item under review: `NS(=O)(=O)c1ccc(N=Nc2c(O)[nH]c3ccc(Br)cc23)cc1` . Reported inhibition?
-- reply 15.6

-- ask Item under review: `COc1cc(NC(=O)COC(=O)c2ccc([N+](=O)[O-])s2)cc(OC)c1OC` . Reported inhibition?
-- reply 4.4

-- ask Item under review: `O=c1[nH]cccc1-c1nc2ccccc2n1Cc1ccc(Cl)cc1` . Reported inhibition?
-- reply 45

* * *

- System name: Female germline-specific tumor suppressor gld-1 (Caenorhabditis elegans)
- Protocol text: small molecules blocking C. elegans GLD-1 RNA recognition – biochemical, fluorescence polarization, primary screen (AID 2280);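 further: 0% = DMSO wells with GLD-1 and probe and 100% = wells lacking GLD-1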
- Condition label: purified GLD-1 + fluorescein TGE RNA, at 5.96 µM, hits give high values
Among all 320,000 compounds or so, about 1,400 (0.44%) were called active. This excerpt belongs to a sample that is enriched for actives.
Recorded inhibition, one value per entry.
API: value field is a number in %; no unit string.

-- ask Item under review: `COc1cc2c(C(=O)N3CCN(C)CC3)c(CSc3ccccc3)n(C)c2cc1Br` . Reported inhibition?
-- reply 0.62

-- ask Item under review: `Cc1nn(C)cc1C(=O)c1ccccc1` . Reported inhibition?
-- reply 1.39

-- ask Item under review: COc1ccc(-c2nc(CS(=O)CC(=O)NCc3ccccn3)c(C)o2)cc1 (centres undefined) . Reported inhibition?
-- reply 81.7

-- ask Item under review: `Cn1nc(-c2ccccc2)c(CSc2cccc(Cl)c2)c1Cl` . Reported inhibition?
-- reply 3.82

* * *

- System name: Female germline-specific tumor suppressor gld-1 (Caenorhabditis elegans)
- Protocol text: small molecules blocking C. elegans GLD-1 RNA recognition – biochemical, fluorescence polarization, primary screen (AID 2280);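 further: 0% = DMSO wells with GLD-1 and probe and 100% = wells lacking GLD-1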
- Condition label: purified GLD-1 + fluorescein TGE RNA, at 5.96 µM
The campaign covered roughly 320,000 compounds. About 1,400 (0.44%) were called active.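 How the source made its calls: active means percent inhibition above a per-plate cutoff, the plate mean of test compounds plus 3 SD (cut at about 30% in these data); inactive means the rest.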 This excerpt belongs to a sample that is enriched for actives.
Returns: one label drawn from active, inactive

# count of solved cases: 8
Compound	Assigned class
C=CCSc1nc2c(c(=O)[nH]c(=O)n2C)n1Cc1ccccc1	inactive
O=C(Nc1ccccc1)N1CCN(C(=O)Nc2ccccc2)CC1	inactive
COC(=O)c1c(NC(=O)CN2CCN(S(=O)(=O)c3ccccc3[N+](=O)[O-])CC2)sc2c1CCC(C)C2 (stereo not drawn)	inactive
CC1(C)CCc2nc(SCc3ccccc3)c(C#N)cc2C1	inactive
Cc1cc2nc3c(=O)n(Cc4ccccc4)c(=O)[nH]c3nc2cc1N	active
CCOC(=O)C(C)n1cnc2c(nnn2-c2ccc(F)cc2)c1=O (stereo not drawn)	inactive
O=C(COC(=O)[C@H](Cc1ccccc1)NC(=O)c1cccs1)Nc1cc(F)ccc1F	inactive
Cc1cccc(N=C2NC(=O)CS2)c1C	inactive

-- ask Please state the recorded outcome for this compound: `COc1ccc(/C=C/C(=O)c2cc(Br)ccc(=O)c2O)cc1`
-- reply inactive

-- ask Please state the recorded outcome for this compound: `CS(=O)(=O)c1ccc(C(=O)NNC(=O)c2cccs2)cc1`
-- reply inactive

-- ask Please state the recorded outcome for this compound: `COc1ccc(C)cc1NC(=S)Nc1ccccc1SC`
-- reply inactive
